Where do the numbers come from? From patent US20260232732A1.

Target Entity: T1, biotin-peptide MTPTDFTSPI (human, also: prints MTPTDFTSP, without I10)
T1 peptide: Biotin-MTPTDFTSPI
Assay Remarks: ELISA biotin-peptide; scFv 10 ug/mL; repII
Where no end group is shown, it is not given here. The star is where a group is joined. Biotin = O=C1N[C@H]2[C@H](CS[C@H]2CCCCC(=O)*)N1
Please go through the items and note down their OD450.
// note: answer is a bare numeric in OD

Q: Reported OD450 for Comparative antibody 3 (Comp-3) scFv, SR_92R (Somovilla-Crespo et al. 2018), His-tagged (scFv) scFv: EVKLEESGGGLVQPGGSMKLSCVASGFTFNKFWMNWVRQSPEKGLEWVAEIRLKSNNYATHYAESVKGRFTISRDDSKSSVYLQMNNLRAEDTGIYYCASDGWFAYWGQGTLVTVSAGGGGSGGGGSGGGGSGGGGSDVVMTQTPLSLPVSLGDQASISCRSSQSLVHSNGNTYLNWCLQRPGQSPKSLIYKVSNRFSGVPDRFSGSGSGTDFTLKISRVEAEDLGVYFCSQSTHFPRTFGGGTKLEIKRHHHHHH : what is it?
Ans: 0.13

Q: Reported OD450 for CCR9_HUM2 scFv (humanized anti-CCR9 scFv, SEQ ID NO: 17 with C-terminal 6xHis tag) (scFv) scFv: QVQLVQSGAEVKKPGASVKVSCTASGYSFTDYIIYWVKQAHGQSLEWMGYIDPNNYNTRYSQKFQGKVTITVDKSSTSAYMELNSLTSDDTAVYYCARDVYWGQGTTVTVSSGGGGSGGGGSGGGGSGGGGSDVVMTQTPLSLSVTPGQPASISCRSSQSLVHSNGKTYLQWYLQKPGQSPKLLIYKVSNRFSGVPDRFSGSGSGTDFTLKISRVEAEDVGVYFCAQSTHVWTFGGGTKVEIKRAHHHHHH : what is it?
Ans: 0.09

Q: Reported OD450 for Comparative antibody 1 (Comp-1) scFv, SEQ ID NO: 10 from WO2023/037125 A1, His-tagged (scFv) scFv: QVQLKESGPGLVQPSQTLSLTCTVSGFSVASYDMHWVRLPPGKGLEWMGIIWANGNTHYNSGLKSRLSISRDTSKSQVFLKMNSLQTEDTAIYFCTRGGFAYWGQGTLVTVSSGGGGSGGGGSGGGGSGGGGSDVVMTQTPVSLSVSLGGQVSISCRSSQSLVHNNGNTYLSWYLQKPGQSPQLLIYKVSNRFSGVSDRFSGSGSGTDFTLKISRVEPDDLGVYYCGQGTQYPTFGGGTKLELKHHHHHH : what is it?
Ans: 0.07

Q: Reported OD450 for Comparative antibody 2 (Comp-2) scFv, 243LO326 (VH SEQ ID NO: 51 and VL SEQ ID NO: 52 of WO 2022/195028 A2), His-tagged (scFv) scFv: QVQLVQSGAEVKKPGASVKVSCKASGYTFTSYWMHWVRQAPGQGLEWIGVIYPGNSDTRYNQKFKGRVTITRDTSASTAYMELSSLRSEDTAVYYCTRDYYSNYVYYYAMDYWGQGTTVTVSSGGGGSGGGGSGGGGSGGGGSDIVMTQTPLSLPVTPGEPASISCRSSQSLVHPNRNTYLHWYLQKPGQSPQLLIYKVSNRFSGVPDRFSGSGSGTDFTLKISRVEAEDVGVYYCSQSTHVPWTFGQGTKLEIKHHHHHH : what is it?
Ans: 0.1
